Tested on: HCT-15 colon
experiment: NCI-60 one-dose screen, 48 h (100 = growth as untreated, 0 = no growth, -100 = all killed)
measurement-context: 10 µM unless noted
Compounds without any hit were thinned out: in the full panel of roughly 83,000, 20% have a hit.
measurement-type: growth (%)
Unit % implied. Number only.

Enquiry: What reported growth corresponds to CC1(C)CC(=O)CC2(C1)N=C(N)Nc1nc3ccccc3n12 (stereo not given) on HCT-15 colon?
Return: 98.2

Enquiry: So what growth did C#CCOc1nc(C)cc(C)c1C#N get with HCT-15 colon?
Return: 96

Enquiry: # returns recorded growth (system: HCT-15 colon) for COC(=O)[C@]12CC[C@@H](C)[C@H](C)[C@@H]1C1=CC[C@@H]3[C@@]4(C)C(C=O)=C[C@@](C)(COC(=O)/C=C/c5ccccc5)[C@@H]4[C@H](O)C[C@@]3(C)[C@]1(C)CC2
Return: 2.39

Enquiry: Any idea what growth came out for COC(=O)/C=C1\S/C(=N\NS(=O)(=O)c2ccc(C)cc2)N(c2ccccc2)C1=O on HCT-15 colon?
Return: 98.7

Enquiry: Find growth (HCT-15 colon) for the entry COc1cc(/C=C/C(=O)c2c(C)nc3ccccc3c2/C=C/c2ccc(C)cc2)cc(OC)c1OC
Return: -19.4

Enquiry: // map Cn1cc2c(c1)-c1nc(Nc3ccccc3)ncc1CC2 to recorded growth (system: HCT-15 colon)
Return: 45.9

Enquiry: GET /values?readout=growth&system=HCT-15 colon&item= CC(C)(C)c1ccc(/C=C/C(=O)Nc2ccc(O)cc2)cc1
Return: 43.4

Enquiry: // map CC(=O)C(C)Cc1cc2c(cc1C)C(C)(C)CCC2(C)C (stereo not given) to recorded growth (system: HCT-15 colon)
Return: 96.7

Enquiry: Lab request: please report growth under test system HCT-15 colon for O=C(COc1ccc(/C=C2\Oc3ccccc3C2=O)cc1)Nc1nc2ccccc2s1
Return: 98.2

Enquiry: Please tell me: growth of O=C(NC(CSSCC(NC(=O)c1ccccc1)C(=O)O)C(=O)O)c1ccccc1 (stereo not given) , system HCT-15 colon?
Return: 99.8

Enquiry: API: value(readout= growth, system= HCT-15 colon, query= O=[N+]([O-])c1ccc(OCCO)cc1 )
Return: 101

Enquiry: Lookup: growth / HCT-15 colon / COc1ccc(-c2nc(SCCC(C)C)nc(N/N=C\c3cccc(Cl)c3)c2C#N)cc1
Return: 82.2

Enquiry: Param readout = growth; param system = HCT-15 colon; param query = CN(C)c1ccc(-c2cc(-c3ccc(Nc4nc(Nc5ccc(Cl)cc5)nc(Nc5ccc(Cl)cc5)n4)cc3)no2)cc1 ; response: value
Return: 39

Enquiry: Give recorded growth with HCT-15 colon for the following compound: Cc1cc(/C=C\c2ccc3ccccc3[n+]2C)c(O)c2ncccc12
Return: 27.9

Enquiry: What growth appears in the records for this compound with HCT-15 colon? CC/C=C\C[C@H](O)C/C=C1/C(=O)C=C[C@@H]1C/C=C\CCCCO
Return: 2.31

Enquiry: Look up growth with HCT-15 colon for this compound: O=C1CCc2c(sc3[nH]c(=S)n(-c4ccc(OC(F)(F)F)cc4)c(=O)c23)C1
Return: 40.4

Enquiry: Lab note: need growth for Cn1ccc2c(c1=O)C(=O)c1nccc3c1c-2nc1ccccc13 on HCT-15 colon, anyone have it?
Return: -61.4

Enquiry: Lab note: need growth with HCT-15 colon for entry COc1cc(/C=N/NC(=O)Cn2c(C(C)C)nc3ccccc32)ccc1O , please look it up.
Return: 98.7

Enquiry: // lookup growth | system=HCT-15 colon | key= Cc1cc(NCCCCNc2ccnc3cc(Cl)ccc23)nc(Nc2ccc(C(=O)N3CCCCC3)cc2)n1
Return: -31.6

Enquiry: Record COCN1CCC2N(COC)CCC3N(COC)CCC1N23 (stereo not given) : what is its growth with HCT-15 colon?
Return: 104
